# System: HEK293T-Rex XBP1-RLuc
# method: EC50 for XBP1-RLuc reporter activation
# conditionParameters: 18 h
measureName: EC50 for XBP1-RLuc reporter activation

# annotated cases, reported EC50 for XBP1-RLuc reporter activation shown
| chemicalSmiles | target | observedMeasurement |
| --- | --- | --- |
| Cc1ccc2nc(NC(=O)c3cccc4ccccc34)sc2c1 | HEK293T-Rex XBP1-RLuc | > 15.1 µM |
| CCOc1cccc(/C=C2\NC(=S)N(C)C2=O)c1O | HEK293T-Rex XBP1-RLuc | > 16.9 µM |
| COc1ccc(C(=O)Nc2nnc(-c3cccs3)s2)cc1 | HEK293T-Rex XBP1-RLuc | > 16.9 µM |
| CC(=O)c1cccc(Nc2nc(-c3ccc(O)c(O)c3)cs2)c1 | HEK293T-Rex XBP1-RLuc | 13.5 µM |
| OCCNc1nc(Nc2ccc(Br)cc2)nc2ccccc12 | HEK293T-Rex XBP1-RLuc | 7.94 µM |
| CC(=O)Oc1ccc2cc(NC(=O)c3ccc(C)cc3)c(=O)oc2c1 | HEK293T-Rex XBP1-RLuc | > 15.1 µM |
| COc1ccc(-c2csc(-c3ccc(O)cc3)n2)cc1 | HEK293T-Rex XBP1-RLuc | > 19.1 µM |
| O=C(/C=C/c1ccccc1)Nc1ccc(Br)cn1 | HEK293T-Rex XBP1-RLuc | > 13.7 µM |

Requested field: EC50 for XBP1-RLuc reporter activation. Item: Oc1ccc(/C=N/Nc2cccc3cccnc23)cc1O
> 16.9 µM

Requested field: EC50 for XBP1-RLuc reporter activation. Item: O=C(Nc1ccc2c(c1)OCCO2)C(=O)Nc1ccccc1Cl
> 16.9 µM

Requested field: EC50 for XBP1-RLuc reporter activation. Item: Cc1ccc(O)c(N/C=C/C(=O)c2cccs2)c1
10 µM

---

# Tested on: HEK293T-Rex ERSE-FLuc
# method: maximal ERSE-FLuc activation from dose-response fit, relative to thapsigargin (% of thapsigargin); higher = stronger activation
# conditionParameters: 18 h
measureName: maximal ERSE-FLuc activation

# annotated cases, reported maximal ERSE-FLuc activation shown
| compound | target | measureName | observedMeasurement |
| --- | --- | --- | --- |
| CCn1c(/C(C#N)=C/c2ccc(OC)cc2)nc2ccccc21 | HEK293T-Rex ERSE-FLuc | maximal ERSE-FLuc activation | 30.6 |
| CCN(CC)c1ccc(NC(=O)c2cccc(OC)c2)cc1 | HEK293T-Rex ERSE-FLuc | maximal ERSE-FLuc activation | 29.7 |

Turning now to a further compound:
GET /values?readout=maximal ERSE-FLuc activation&system=HEK293T-Rex ERSE-FLuc&item= CCOc1cc(C2C(C(=O)OC3CCCCC3)=C(C)NC3=C2C(=O)CC(c2ccc(OC)cc2)C3)cc(Br)c1O (stereo not drawn)
70.4

---

// reported maximal ERSE-FLuc activation for each item listed
# System: HEK293T-Rex ERSE-FLuc
# method: maximal ERSE-FLuc activation from dose-response fit, relative to thapsigargin (% of thapsigargin); higher = stronger activation
# conditionParameters: 18 h

# annotated cases, reported maximal ERSE-FLuc activation shown
| compound | maximal ERSE-FLuc activation |
| --- | --- |
| Cc1ccc(-c2csc(Nc3ccc(O)cc3)n2)cc1 | 40.9 |
| O=C(N/N=C/c1ccc2c(c1)OCO2)c1cccc(F)c1 | 20.8 |
| COc1ccc(CCNC(=O)c2cccc(-c3ccc(N4CCOCC4)nc3)c2)cc1 | 15.9 |

Turning now to a further compound:
Requested field: maximal ERSE-FLuc activation. Item: Oc1ccccc1/C=N\Nc1nc2ccccc2o1
12.4
